Molecular target: h5-HT4b (Homo sapiens, UniProt Q13639)
Construct: expressed in transfected cells; host or cells: HEK 293 (clone 9), membrane preparation
Sequence (Q13639 whole entry): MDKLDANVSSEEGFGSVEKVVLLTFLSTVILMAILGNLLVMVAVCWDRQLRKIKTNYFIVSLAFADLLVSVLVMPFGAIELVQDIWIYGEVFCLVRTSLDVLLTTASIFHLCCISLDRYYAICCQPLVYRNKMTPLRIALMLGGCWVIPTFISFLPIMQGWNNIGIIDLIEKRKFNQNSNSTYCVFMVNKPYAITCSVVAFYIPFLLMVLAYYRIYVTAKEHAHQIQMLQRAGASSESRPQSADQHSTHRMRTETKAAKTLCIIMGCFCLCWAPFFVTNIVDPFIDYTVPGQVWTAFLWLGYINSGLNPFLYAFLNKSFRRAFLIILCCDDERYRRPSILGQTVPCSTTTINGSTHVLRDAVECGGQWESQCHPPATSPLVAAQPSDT
Test: 5HT4 antagonism: [3H]GR113808 binding to membranes of h5-HT4b-HEK 293 clone 9 cells
Conditions: displacement of [3H]GR113808 0.1 nM, h5-HT4b-HEK 293 membranes, 30 min at 25° C.; read-out: pIC50 (5HT4 antagonistic data) (converted)
Rule: IC50 below 0.006 µM gives Y, anything at or above gives N.

Worked cases, answers included:
CCCCN1CC[C@@H](CNC(=O)c2cc(N)c(Cl)c3c2OCCO3)[C@H](O)C1 [compound 11] = Y
CC(=O)CCCN1CC[C@@H](CNC(=O)c2cc(C)cc3c2OCCCO3)[C@H](O)C1 [compound 229] = Y
COc1cc2c(c(C(=O)NC[C@@H]3CCN(CCCC#N)C[C@H]3O)c1)OCCCO2 [compound 128] = N
COCCN1CC[C@@H](CNC(=O)c2cc(N)cc3c2OCCO3)[C@H](O)C1 [compound 32] = N

Shifting focus to the molecule that follows.
INPUT: For Nc1cc2c(c(C(=O)NC[C@@H]3CCN(CCCCO)C[C@H]3O)c1)OCCO2 [compound 98] , is the recorded IC50 below the cut-off of 0.006 µM?
OUTPUT: N

====

Kindly supply the reported IC50 values for the records listed here.
Target: h5-HT4b (Homo sapiens)
Construct: expressed in transfected cells; host or cells: HEK 293 (clone 9), membrane preparation
Test: 5HT4 antagonism: [3H]GR113808 binding to membranes of h5-HT4b-HEK 293 clone 9 cells
Details: displacement of [3H]GR113808 0.1 nM, h5-HT4b-HEK 293 membranes, 30 min at 25° C.; read-out: pIC50 (5HT4 antagonistic data) (converted)
One number for each entry, in nM.

Cc1cc2c(c(C(=O)NC[C@@H]3CCN(CCCCCC(N)=O)C[C@H]3O)c1)OCCCO2 [compound 213] = 2.63

Each molecule below has a reported value. Please supply its IC50.
1. CCCCNc1cc2c(c(C(=O)NC[C@@H]3CCNC[C@H]3O)c1)OCCCO2 [compound 154]
2. CNc1cc2c(c(C(=O)NC[C@@H]3CCN(CCCO)C[C@H]3O)c1)OCCO2 [compound 12]
3. CNCCCCN1CC[C@@H](CNC(=O)c2cc(N)cc3c2OCCCO3)[C@H](O)C1 [compound 106]

OUTPUT:
1: 3160; 2: 41.7; 3: 363

====

Kindly supply the reported IC50 values for the records listed here.
Biological target: h5-HT4b (Homo sapiens)
Construct: expressed in transfected cells; host or cells: HEK 293 (clone 9), membrane preparation
Assay: 5HT4 antagonism: [3H]GR113808 binding to membranes of h5-HT4b-HEK 293 clone 9 cells
Settings: displacement of [3H]GR113808 0.1 nM, h5-HT4b-HEK 293 membranes, 30 min at 25° C.; read-out: pIC50 (5HT4 antagonistic data) (converted)
Give bare numbers, in nM.

CCCCN1CC[C@@H](CNC(=O)c2cc(N)c(Br)c3c2OCCO3)[C@H](O)C1 [compound 153] = 13.8

Each molecule below has a reported value. Please supply its IC50.
1. CNc1cc2c(c(C(=O)NC[C@@H]3CCN(CCNS(C)(=O)=O)C[C@H]3O)c1)OCCCO2 [compound 102]
2. Cc1cc2c(c(C(=O)NC[C@@H]3CCN(CCCc4ccc(O)cc4)C[C@H]3O)c1)OCCCO2 [compound 233]
3. CS(=O)(=O)NCCN1CC[C@@H](CNC(=O)c2cc(N)cc3c2OCCO3)[C@H](O)C1 [compound 132]
4. CNc1cc2c(c(C(=O)NC[C@@H]3CCN(CCCOC4CCCCC4)C[C@H]3O)c1)OCCO2 [compound 40]
5. Nc1cc(C(=O)NC[C@@H]2CCNC[C@H]2O)c2c(c1Br)OCCCO2 [compound 142]

OUTPUT:
[120, 0.355, 91.2, 6.92, 1150]

Each molecule below has a reported value. Please supply its IC50.
1. Cc1cc2c(c(C(=O)NC[C@@H]3CCN(CCCCNc4ncccn4)C[C@H]3O)c1)OCCCO2 [compound 230]
2. CNc1cc2c(c(C(=O)NC[C@@H]3CCN(CCNc4nccnc4C)C[C@H]3O)c1)OCCCO2 [compound 95]
3. CCCCN1CC[C@@H](CNC(=O)c2cc(OC)cc3c2OCCCO3)[C@H](O)C1 [compound 195]
4. CC(C)Nc1cc2c(c(C(=O)NC[C@@H]3CCN(CCCO)C[C@H]3O)c1)OCCCO2 [compound 180]

OUTPUT:
[0.501, 36.3, 3.63, 43.7]

====

Kindly supply the reported IC50 values for the records listed here.
Biological target: h5-HT4b (Homo sapiens, UniProt Q13639)
Construct: expressed in transfected cells; host or cells: HEK 293 (clone 9), membrane preparation
Experiment: 5HT4 antagonism: [3H]GR113808 binding to membranes of h5-HT4b-HEK 293 clone 9 cells
Details: displacement of [3H]GR113808 0.1 nM, h5-HT4b-HEK 293 membranes, 30 min at 25° C.; read-out: pIC50 (5HT4 antagonistic data) (converted)
Protocol: h5-HT4b-HEK 293 clone 9 cells were cultured in 150 mm Petri dishes and washed twice with cold PBS. The cells were then scraped from the plates and suspended in 50 mM Tris-HCl buffer, pH 7.4 and harvested by centrifugation at 23,500 rpm for 10 minutes. The pellet was resuspended in 5 mM Tris-HCl, pH 7.4 and homogenized with an Ultra Turrax homogenizer. The membranes were collected by centrifugation at 30,000 rpm for 20 min, resuspended in 50 mM Tris-HCl pH 7.4 and stored at −80° C. […]
Numbers only, in nM.

Below, 5 compounds whose answers are already recorded.
CC(C)OCCCN1CC[C@@H](CNC(=O)c2cc(N)cc3c2OCCCO3)[C@H](O)C1 = 36.3
Nc1cc(C(=O)NC[C@@H]2CCN(CCOCCO)C[C@H]2O)c2c(c1Cl)OCCO2 = 89.1
N#CCCCN1CC[C@@H](CNC(=O)c2cc(N)c(Cl)c3c2OCCO3)[C@H](O)C1 = 30.2
Nc1cc(C(=O)NC[C@@H]2CCN(CC3CCCO3)C[C@H]2O)c2c(c1Cl)OCCO2 (stereo partly shown) = 6.03
CC(C)Nc1cc2c(c(C(=O)NC[C@@H]3CCNC[C@H]3O)c1)OCCCO2 = 2400

Each compound below has a reported value. Please supply its IC50.
1. CCCCN1CC[C@@H](CNC(=O)c2cc(C)cc3c2OCCCO3)[C@H](O)C1
2. N#Cc1cc2c(c(C(=O)NC[C@@H]3CCN(CCCC(N)=O)C[C@H]3O)c1)OCCCO2

OUTPUT:
1: 1; 2: 4.27

Each compound below has a reported value. Please supply its IC50.
1. CO[C@@H]1CNCC[C@H]1CNC(=O)c1cc(C)cc2c1OCCCO2
2. N#Cc1cc2c(c(C(=O)NC[C@@H]3CCN(CCCO)C[C@H]3O)c1)OCCCO2
3. CCCNc1cc2c(c(C(=O)NC[C@@H]3CCNC[C@H]3O)c1)OCCCO2
4. CCCCN1CC[C@@H](CNC(=O)c2cc(C#N)cc3c2OCCCO3)[C@H](OC)C1
5. CNCCCCN1CC[C@@H](CNC(=O)c2cc(NC)cc3c2OCCCO3)[C@H](O)C1
6. CNc1cc2c(c(C(=O)NC[C@@H]3CCN(CCCOC)C[C@H]3O)c1)OCCCO2

OUTPUT:
83.2
15.8
3550
17.8
229
126

Each compound below has a reported value. Please supply its IC50.
1. COCCCCN1CC[C@@H](CNC(=O)c2cc(C)cc3c2OCCO3)[C@H](O)C1
2. N#CCN1CC[C@@H](CNC(=O)c2cc(N)c(Cl)c3c2OCCCO3)[C@H](O)C1
3. COCCCN1CC[C@@H](CNC(=O)c2cc(C#N)cc3c2OCCCO3)[C@H](O)C1 [compound 158]
4. CCCCN1CC[C@@H](CNC(=O)c2cc(NC)c(Cl)c3c2OCCO3)[C@H](O)C1
5. CC1(CCCN2CC[C@@H](CNC(=O)c3cc(N)c(Cl)c4c3OCCO4)[C@H](O)C2)OCCO1

OUTPUT:
[0.224, 6170, 10.2, 15.5, 13.2]

INPUT: For the compound `CCCCN1CC[C@@H](CNC(=O)c2cc(N)c(Cl)c3c2OCCCO3)[C@H](O)C1` , give its measured IC50 value.
OUTPUT: 8.32

====

Biological target: h5-HT4b (Homo sapiens, UniProt Q13639)
Construct: expressed in transfected cells; host or cells: HEK 293 (clone 9), membrane preparation
Assay: 5HT4 antagonism: [3H]GR113808 binding to membranes of h5-HT4b-HEK 293 clone 9 cells
Conditions: displacement of [3H]GR113808 0.1 nM, h5-HT4b-HEK 293 membranes, 30 min at 25° C.; read-out: pIC50 (5HT4 antagonistic data) (converted)
TEST_READOUT: IC50 (nM)
Give bare numbers, in nM.

Below, 5 molecules whose answers are already recorded.
N#CCc1cc2c(c(C(=O)NC[C@@H]3CCN(CC4CCCO4)C[C@H]3O)c1)OCCCO2 (stereo partly drawn) = 17
Cc1cc2c(c(C(=O)NC[C@H]3CCN(CCCC(N)=O)C[C@H]3O)c1)OCCCO2 = 37.2
CC1(CCCN2CC[C@@H](CNC(=O)c3cc(N)c(Cl)c4c3OCCCO4)[C@H](O)C2)OCCO1 = 22.9
Nc1cc(C(=O)NC[C@@H]2CCN(CCCO)C[C@H]2O)c2c(c1Br)OCCCO2 = 43.7
CNc1cc2c(c(C(=O)NC[C@@H]3CCN(CCCCOC)C[C@H]3O)c1)OCCCO2 = 81.3

INPUT: For the molecule `CCCCN1CC[C@@H](CNC(=O)c2cc(N)cc3c2OCCCO3)[C@H](O)C1` , give its measured IC50 value.
OUTPUT: 19.1
